The values you see were collected from patent US20090252672A1.

Assay Protocol: in vitro
Run Parameters: human, Caco-2
Observed Property: Papp (×10⁻⁶ cm/s)
Answers are plain numbers, in ×10⁻⁶ cm/s.

Fill in: Papp of OC[C@@H](O)[C@@H](O)[C@H](O)[C@H](O)CO is ___ 0.686
